# Test system: 565726-208-R1-J5-PDC complex spheroids, growth inhibition
# assayOverview: Anticancer human tumor 565726-208-R1-J5-PDC patient-derived pancreatic adenocarcinoma cell line growth inhibition [RAS]
# experimentalSetup: second compound 0.0949 µM; first compound 0.0949 µM; stronger effect = lower value
// reported viability, T/C per item
recordedMetric: viability, T/C (%)

{"columns": ["compound", "targetUnderTest", "recordedMetric", "unitDescriptor", "observedMeasurement"],
 "data": [
  ["CCc1c2c(nc3ccc(O)cc13)-c1cc3c(c(=O)n1C2)COC(=O)[C@]3(O)CC + CCn1c(-c2cc(N3CCN(C)CC3)cnc2C(C)OC)c2c3cc(ccc31)-c1csc(n1)CC(NC(=O)C1CC1C)C(=O)N1CCCC(N1)C(=O)OCC(C)(C)C2", "565726-208-R1-J5-PDC complex spheroids, growth inhibition", "viability, T/C", "%", 10.4],
  ["CCc1c2c(nc3ccc(O)cc13)-c1cc3c(c(=O)n1C2)COC(=O)[C@]3(O)CC + CCn1c(-c2cccnc2C(C)OC)c2c3cc(ccc31)N1CCOC(CC(NC(=O)C(C(C)C)N(C)C(=O)C3(F)CCN(C(=O)C#CC(C)(C)N(C)C)CC3)C(=O)N3CCCC(N3)C(=O)OCC(C)(C)C2)C1", "565726-208-R1-J5-PDC complex spheroids, growth inhibition", "viability, T/C", "%", 6],
  ["CC1(C)CCC(Nc2ncc(C(F)(F)F)c(-c3c[nH]c4c(P(C)(C)=O)c(C#N)ccc34)n2)CN1 (centres undefined) + CCn1c(-c2cccnc2C(C)OC)c2c3cc(ccc31)N1CCOC(CC(NC(=O)C(C(C)C)N(C)C(=O)C3(F)CCN(C(=O)C#CC(C)(C)N(C)C)CC3)C(=O)N3CCCC(N3)C(=O)OCC(C)(C)C2)C1", "565726-208-R1-J5-PDC complex spheroids, growth inhibition", "viability, T/C", "%", 29],
  ["CC1(C)CCC(Nc2ncc(C(F)(F)F)c(-c3c[nH]c4c(P(C)(C)=O)c(C#N)ccc34)n2)CN1 (centres undefined) + CCn1c(-c2cc(N3CCN(C)CC3)cnc2C(C)OC)c2c3cc(ccc31)-c1csc(n1)CC(NC(=O)C1CC1C)C(=O)N1CCCC(N1)C(=O)OCC(C)(C)C2", "565726-208-R1-J5-PDC complex spheroids, growth inhibition", "viability, T/C", "%", 26.8]
]}

* * *

// reported viability, T/C per item
# Test system: 565726-208-R1-J5-PDC complex spheroids, growth inhibition
# assayOverview: Anticancer human tumor 565726-208-R1-J5-PDC cell line growth inhibition [RAS];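 note: spheroids exposed to compounds for seven days before readout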;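 for viability, T/C: 100% = DMSO vehicle control viability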
# experimentalSetup: second compound 0.1 µM; first compound 0.00316 µM; stronger effect = lower value
recordedMetric: viability, T/C (%)

{"columns": ["compound", "targetUnderTest", "observedMeasurement"],
 "data": [
  ["O=C(c1ccc(F)c(F)c1Nc1ccc(I)cc1F)N1CC(O)([C@@H]2CCCCN2)C1 + C#Cc1c(F)ccc2cc(O)cc(-c3ncc4c(N5CC6CCC(C5)N6)nc(OCC56CCCN5CC(F)C6)nc4c3F)c12", "565726-208-R1-J5-PDC complex spheroids, growth inhibition", 116],
  ["C=CC(=O)N1CCN(c2nc(OCC3CCCN3C)nc3c(F)c(-c4nc(N)cc(C)c4C(F)(F)F)c(Cl)cc23)C(C)C1 (stereo unspecified) + C#Cc1c(F)ccc2cc(O)cc(-c3ncc4c(N5CC6CCC(C5)N6)nc(OCC56CCCN5CC(F)C6)nc4c3F)c12", "565726-208-R1-J5-PDC complex spheroids, growth inhibition", 101],
  ["C=CC(=O)Nc1cc(Nc2nccc(-c3cn(C)c4ccccc34)n2)c(OC)cc1N(C)CCN(C)C + C#Cc1c(F)ccc2cc(O)cc(-c3ncc4c(N5CC6CCC(C5)N6)nc(OCC56CCCN5CC(F)C6)nc4c3F)c12", "565726-208-R1-J5-PDC complex spheroids, growth inhibition", 113],
  ["CC(C)n1nc(-c2ccc3oc(N)nc3c2)c2c(N)ncnc21 + C#Cc1c(F)ccc2cc(O)cc(-c3ncc4c(N5CC6CCC(C5)N6)nc(OCC56CCCN5CC(F)C6)nc4c3F)c12", "565726-208-R1-J5-PDC complex spheroids, growth inhibition", 73.8],
  ["CC(C)n1nc(-c2ccc3oc(N)nc3c2)c2c(N)ncnc21 + C=CC(=O)N1CCN(c2nc(OCC3CCCN3C)nc3c(F)c(-c4nc(N)cc(C)c4C(F)(F)F)c(Cl)cc23)C(C)C1", "565726-208-R1-J5-PDC complex spheroids, growth inhibition", 86.5],
  ["CCN1CCN(Cc2ccc(Nc3ncc(F)c(-c4cc(F)c5nc(C)n(C(C)C)c5c4)n3)nc2)CC1 + C=CC(=O)N1CCN(c2nc(OCC3CCCN3C)nc3c(F)c(-c4nc(N)cc(C)c4C(F)(F)F)c(Cl)cc23)C(C)C1", "565726-208-R1-J5-PDC complex spheroids, growth inhibition", 135]
]}

* * *

# Test system: 565726-208-R1-J5-PDC complex spheroids, growth inhibition
# assayOverview: Anticancer human tumor 565726-208-R1-J5-PDC cell line growth inhibition [RAS];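 note: spheroids exposed to compounds for seven days before readout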
# experimentalSetup: curve of first compound; second compound 3.16 µM
// reported log10 IC50 per item
recordedMetric: log10 IC50 (log10 of the value in nM)

{"columns": ["compound", "log10 IC50"],
 "data": [
  ["CCc1c2c(nc3ccc(O)cc13)-c1cc3c(c(=O)n1C2)COC(=O)[C@]3(O)CC + C#Cc1c(F)ccc2cc(O)cc(-c3ncc4c(N5CC6CCC(C5)N6)nc(OCC56CCCN5CC(F)C6)nc4c3F)c12", 0.50],
  ["CC1(O)CCCC1n1c(=O)c(C(F)F)cc2cnc(NC3CCN(S(C)(=O)=O)CC3)nc21 (stereo unspecified) + C#Cc1c(F)ccc2cc(O)cc(-c3ncc4c(N5CC6CCC(C5)N6)nc(OCC56CCCN5CC(F)C6)nc4c3F)c12", 3.06],
  ["NC1c2ccccc2OC12CCN(c1cnc3c(N4CCCc5ncccc54)n[nH]c3n1)CC2 (stereo unspecified) + C#Cc1c(F)ccc2cc(O)cc(-c3ncc4c(N5CC6CCC(C5)N6)nc(OCC56CCCN5CC(F)C6)nc4c3F)c12", 2.45],
  ["CCN1CCN(Cc2ccc(Nc3ncc(F)c(-c4cc(F)c5nc(C)n(C(C)C)c5c4)n3)nc2)CC1 + C#Cc1c(F)ccc2cc(O)cc(-c3ncc4c(N5CC6CCC(C5)N6)nc(OCC56CCCN5CC(F)C6)nc4c3F)c12", 1.97],
  ["CC1(C)CCC(Nc2ncc(C(F)(F)F)c(-c3c[nH]c4c(P(C)(C)=O)c(C#N)ccc34)n2)CN1 (stereo unspecified) + C#Cc1c(F)ccc2cc(O)cc(-c3ncc4c(N5CC6CCC(C5)N6)nc(OCC56CCCN5CC(F)C6)nc4c3F)c12", 1.06]
]}

* * *

// reported pIC50 per item
# Tested on: 565726-208-R1-J5-PDC complex spheroids, growth inhibition
# assayOverview: Anticancer human tumor 565726-208-R1-J5-PDC cell line growth inhibition [RAS];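 note: spheroids exposed to compounds for seven days before readout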
# experimentalSetup: curve of first compound; second compound 0.003 µM
pIC50: −log10 of the molar value.

{"columns": ["molecule", "comparisonOperator", "pIC50"],
 "data": [
  ["CCC(CC)c1cc(NC2CCC(N)C2)n2nccc2n1 (centres undefined) + CCn1c(-c2cc(N3CCN(C)CC3)cnc2C(C)OC)c2c3cc(ccc31)-c1csc(n1)CC(NC(=O)C1CC1C)C(=O)N1CCCC(N1)C(=O)OCC(C)(C)C2", "=", 6.47],
  ["CCN1CCN(Cc2ccc(Nc3ncc(F)c(-c4cc(F)c5nc(C)n(C(C)C)c5c4)n3)nc2)CC1 + CCn1c(-c2cc(N3CCN(C)CC3)cnc2C(C)OC)c2c3cc(ccc31)-c1csc(n1)CC(NC(=O)C1CC1C)C(=O)N1CCCC(N1)C(=O)OCC(C)(C)C2", ">", 8.50],
  ["CC1(C)CCC(Nc2ncc(C(F)(F)F)c(-c3c[nH]c4c(P(C)(C)=O)c(C#N)ccc34)n2)CN1 (centres undefined) + CCn1c(-c2cccnc2C(C)OC)c2c3cc(ccc31)N1CCOC(CC(NC(=O)C(C(C)C)N(C)C(=O)C3(F)CCN(C(=O)C#CC(C)(C)N(C)C)CC3)C(=O)N3CCCC(N3)C(=O)OCC(C)(C)C2)C1", "=", 8.39],
  ["O=C(c1ccc(F)c(F)c1Nc1ccc(I)cc1F)N1CC(O)([C@@H]2CCCCN2)C1 + CCn1c(-c2cccnc2C(C)OC)c2c3cc(ccc31)N1CCOC(CC(NC(=O)C(C(C)C)N(C)C(=O)C3(F)CCN(C(=O)C#CC(C)(C)N(C)C)CC3)C(=O)N3CCCC(N3)C(=O)OCC(C)(C)C2)C1", "=", 6.89]
]}

Data provenance: PubChem BioAssay AID2060899
